Consider the following molecules; for each one, report its IC50.
# TARGET OR SYSTEM: Epidermal growth factor receptor (Homo sapiens, UniProt P00533, L858R)
# Sequence (P00533 25-1210 L858R limits assumed): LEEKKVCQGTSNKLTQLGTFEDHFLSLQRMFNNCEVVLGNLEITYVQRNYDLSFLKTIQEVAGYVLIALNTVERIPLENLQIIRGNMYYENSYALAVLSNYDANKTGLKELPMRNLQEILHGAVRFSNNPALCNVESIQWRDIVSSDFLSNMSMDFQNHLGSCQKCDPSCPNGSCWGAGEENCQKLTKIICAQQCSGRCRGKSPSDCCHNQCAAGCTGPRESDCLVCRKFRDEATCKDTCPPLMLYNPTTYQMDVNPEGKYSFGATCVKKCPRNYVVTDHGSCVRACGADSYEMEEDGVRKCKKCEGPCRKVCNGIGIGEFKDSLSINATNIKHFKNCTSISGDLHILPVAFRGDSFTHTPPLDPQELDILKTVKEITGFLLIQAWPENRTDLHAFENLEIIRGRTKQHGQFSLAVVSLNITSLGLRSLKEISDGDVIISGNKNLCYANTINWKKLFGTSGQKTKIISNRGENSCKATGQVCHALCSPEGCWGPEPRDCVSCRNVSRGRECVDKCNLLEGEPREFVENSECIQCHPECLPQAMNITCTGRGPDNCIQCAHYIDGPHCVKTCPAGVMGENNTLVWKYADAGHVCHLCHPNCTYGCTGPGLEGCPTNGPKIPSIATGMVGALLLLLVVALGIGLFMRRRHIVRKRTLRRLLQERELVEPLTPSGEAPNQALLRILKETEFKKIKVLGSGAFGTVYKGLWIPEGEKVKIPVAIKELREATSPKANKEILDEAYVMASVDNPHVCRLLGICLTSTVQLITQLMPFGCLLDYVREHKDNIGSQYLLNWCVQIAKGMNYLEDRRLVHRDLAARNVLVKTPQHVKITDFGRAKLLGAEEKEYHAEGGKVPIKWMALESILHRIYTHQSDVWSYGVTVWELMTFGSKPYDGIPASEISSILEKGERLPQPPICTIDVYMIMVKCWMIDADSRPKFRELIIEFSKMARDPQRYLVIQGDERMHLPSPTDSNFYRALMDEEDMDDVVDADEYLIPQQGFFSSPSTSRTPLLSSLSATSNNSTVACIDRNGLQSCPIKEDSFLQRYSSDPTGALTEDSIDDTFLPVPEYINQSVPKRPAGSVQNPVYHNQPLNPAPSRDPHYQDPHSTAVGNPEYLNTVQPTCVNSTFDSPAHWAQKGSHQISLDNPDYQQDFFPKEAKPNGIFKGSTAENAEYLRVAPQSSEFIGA
# PROCEDURE TEXT: Inhibition of recombinant human EGFR L858R mutant expressed in baculovirus using FAM-labelled peptide as substrate pre-incubated for 10 mins followed by substrate addition by mobility shift assay

Record Cc1cc(F)cc(Nc2cc(NC(=O)Nc3c(Cl)cccc3Cl)ncn2)c1 , field IC50: 174 nM

IC50 reported for this molecule COc1cc(Nc2cc(NC(=O)Nc3c(Cl)cccc3Cl)ncn2)cc(OC)c1 : 490 nM

Value of measured IC50 for the entry COc1ccc(OC)c(Nc2cc(NC(=O)Nc3c(Cl)cccc3Cl)ncn2)c1 : 39 nM

Where do these numbers come from? They come from ChEMBL document CHEMBL4414679.
